Numbers sourced from patent US20240166737A1.

TESTED ON: T1, human MSLN on the cell surface (human, UniProt Q13421 296-598)
T1 construct: on cells stands the processed GPI-anchored 40 kDa MSLN; also called membrane MSLN; MSLN on H838, OVCAR-8 (OVCAR8), OVCAR-8 K1/C8, SK-OV-3 cells
T1 sequence (Q13421 other isoform, or with tags, fused parts or gaps limits assumed): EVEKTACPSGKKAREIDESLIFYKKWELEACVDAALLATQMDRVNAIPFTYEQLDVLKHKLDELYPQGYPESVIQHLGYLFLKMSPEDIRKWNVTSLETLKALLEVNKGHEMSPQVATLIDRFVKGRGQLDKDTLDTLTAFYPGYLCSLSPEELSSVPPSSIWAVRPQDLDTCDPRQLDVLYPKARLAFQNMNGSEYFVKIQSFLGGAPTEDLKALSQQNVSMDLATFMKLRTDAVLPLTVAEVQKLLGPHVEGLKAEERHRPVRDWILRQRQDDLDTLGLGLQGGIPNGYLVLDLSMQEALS
ASSAY NOTES: high content imaging, surface staining of OVCAR8 cells
MEASURED ATTRIBUTE: IC50

BINDER	MEASURED ATTRIBUTE	RECORDED RESULT
MSLNB570 (antibody, V domains shown, mAb; also called MSNB570) VH: QVQLQQSGPGLVKPSQTLSLTCAISGDSVSSTSVAWNWIRQSPSGGLEWLGRTYYRSKWYNDYALSVKSRMTINPDTASNQFSLQLNSVTPEDTAVYYCSRGIVGALDYWGQGTLVTVSS VL: DIVMTQTPLSLPVTPGGPASISCRSSQSLMYSNGYNHLDWYLQKPGQSPQFLIHLGSNRVSGVPDRFSGSGSGTDFTLKISRVEAEDVGVYYCMQALRTPYTFGQGTKVDIK	IC50	0.0728 µg/mL
MSLNB571 (antibody, V domains shown, mAb; also called MSNB571) VH: QVQLQQSGPGLVKPSQTLSLTCAISGDSVSSTSVAWNWIRQSPSGGLEWLGRIYYRSKWYNDYALSVKSRMTINPDTASNQFSLQLNSVTPEDTAVYYCSRGIVGALDYWGQGTLVTVSS VL: DIVMTQTPLSLPVTPGGPASISCRSSQSLMYSNGYNHLDWYLQKPGQSPQFLIHLGSNRVSGVPDRFSGSGSGTDFTLKISRVEAEDVGVYYCMQALRTPYTFGQGTKVDIK	IC50	0.0735 µg/mL
MSLNB568 (antibody, V domains shown, mAb; also called MSLNB568.001; MSNB568) VH: QVQLQQSGPGLVKPSQTLSLTCGISGDSVSSSSVAWNWIRQSPSRGLEWLGRTYYRSKWYNDYAISVRSRVTINPDTSKNQFSLQLNSVTPEDTAVYYCSRGVVGALDYWGQGTLVTVSS VL: DIVMTQSPLSLTVTPGEPASISCRSSQSLLFTNGYNSLDWYLQKPGQSPQFLIYLVSNRASGVPDRFSGSGSGTDFTLKISRVEAEDVGVYYCMQALRTPYTFGQGTKVEIK	IC50	0.0764 µg/mL
